Entries annotated with measured EC50
- Experimental target: T1, human CLDN9 (UniProt O95484 1-217)
- T1 chain: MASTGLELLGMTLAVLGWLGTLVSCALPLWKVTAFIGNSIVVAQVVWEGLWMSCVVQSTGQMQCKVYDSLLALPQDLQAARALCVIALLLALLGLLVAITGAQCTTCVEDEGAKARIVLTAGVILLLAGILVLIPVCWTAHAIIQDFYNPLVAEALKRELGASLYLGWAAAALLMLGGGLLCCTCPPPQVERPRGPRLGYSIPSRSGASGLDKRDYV
- Experiment summary: HEK293E cell binding; avid
# output: bare number, implied unit µg/mL

>>> observed_result("XENP35886 H1.22_L1 (antibody, V domains shown) VH: QVQLVQSGAEVKKPGASVKVSCKTSGYTFTEYTMHWVRQAPGQSLEWMGGIDPNNGNTHYNQKFQGRVTITVDKSASTAYMELSSLRSEDTAVYYCARILYFGRLYFDFWGAGTLVTVSS VL: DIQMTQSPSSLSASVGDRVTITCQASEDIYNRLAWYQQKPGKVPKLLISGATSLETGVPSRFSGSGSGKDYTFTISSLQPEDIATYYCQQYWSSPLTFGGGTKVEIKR")
24.5
>>> observed_result("XENP36022 H2.72_L1 (antibody, V domains shown) VH: EVQLVQSGAEVKKPGESLRISCKTSGYTFTEYTMHWVRQMPGKSLEWMGGIDANNGNTHYNQKFQGHVTISVDKSISTAYLQWSSLKASDTAMYYCARIYYFGRLYFDFWGAGTLVTVSS VL: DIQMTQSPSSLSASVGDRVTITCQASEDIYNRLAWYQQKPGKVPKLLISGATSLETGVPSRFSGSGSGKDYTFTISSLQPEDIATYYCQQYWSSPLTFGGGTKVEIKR")
47.2
>>> observed_result("XENP35890 H2.11_L1 (antibody, V domains shown) VH: EVQLVQSGAEVKKPGESLRISCKTSGYSFTEYTMHWVRQMPGKSLEWMGGIDPNNGNTHYNQKFQGHVTISVDKSISTAYLQWSSLKASDTAMYYCARIYYFGRLYFDFWGAGTLVTVSS VL: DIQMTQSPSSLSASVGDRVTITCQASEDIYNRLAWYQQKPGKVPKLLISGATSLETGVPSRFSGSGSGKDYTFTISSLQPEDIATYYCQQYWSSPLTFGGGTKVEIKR")
34.1
>>> observed_result("XENP36021 H2.71_L1 (antibody, V domains shown) VH: EVQLVQSGAEVKKPGESLRISCKTSGYTFTEYTMHWVRQMPGKSLEWMGGIDLNNGNTHYNQKFQGHVTISVDKSISTAYLQWSSLKASDTAMYYCARIYYFGRLYFDFWGAGTLVTVSS VL: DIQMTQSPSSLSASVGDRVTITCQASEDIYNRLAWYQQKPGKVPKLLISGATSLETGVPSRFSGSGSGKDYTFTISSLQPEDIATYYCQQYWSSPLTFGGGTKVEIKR")
49.3

Continue with the binder presented below.
## Input Looking for the measured EC50 of XENP36041 H2.91_L1 (antibody, V domains shown) VH: EVQLVQSGAEVKKPGESLRISCKTSGYTFTEYTMHWVRQMPGKSLEWMGGIDPNNFNTHYNQKFQGHVTISVDKSISTAYLQWSSLKASDTAMYYCARIYYFGRLYFDFWGAGTLVTVSS VL: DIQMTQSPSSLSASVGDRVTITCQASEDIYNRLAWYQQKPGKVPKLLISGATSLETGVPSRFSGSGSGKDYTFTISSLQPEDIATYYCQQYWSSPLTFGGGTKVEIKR , can you help?
## Output 32.5

Data provenance: patent US20240400675A1
